Would you kindly list pIC50 for each of these molecules?
molecular target: AChE from electric eel (EeAChE) (Electrophorus electricus, UniProt O42275); construct: Acetylcholinesterase was obtained from electric eel (Electrophorus electricus L.); purchased Sigma-Aldrich (Prague, Czech Republic); host or cells: electric eel (natural source); assay: Inhibition of AChE, modified Ellman's spectrophotometric method; type: biochemical, electric eel (Electrophorus electricus L.); details: mean ± SD, n = three experiments; read-out: IC50 (EeAChE)
Sequence (O42275 24-633): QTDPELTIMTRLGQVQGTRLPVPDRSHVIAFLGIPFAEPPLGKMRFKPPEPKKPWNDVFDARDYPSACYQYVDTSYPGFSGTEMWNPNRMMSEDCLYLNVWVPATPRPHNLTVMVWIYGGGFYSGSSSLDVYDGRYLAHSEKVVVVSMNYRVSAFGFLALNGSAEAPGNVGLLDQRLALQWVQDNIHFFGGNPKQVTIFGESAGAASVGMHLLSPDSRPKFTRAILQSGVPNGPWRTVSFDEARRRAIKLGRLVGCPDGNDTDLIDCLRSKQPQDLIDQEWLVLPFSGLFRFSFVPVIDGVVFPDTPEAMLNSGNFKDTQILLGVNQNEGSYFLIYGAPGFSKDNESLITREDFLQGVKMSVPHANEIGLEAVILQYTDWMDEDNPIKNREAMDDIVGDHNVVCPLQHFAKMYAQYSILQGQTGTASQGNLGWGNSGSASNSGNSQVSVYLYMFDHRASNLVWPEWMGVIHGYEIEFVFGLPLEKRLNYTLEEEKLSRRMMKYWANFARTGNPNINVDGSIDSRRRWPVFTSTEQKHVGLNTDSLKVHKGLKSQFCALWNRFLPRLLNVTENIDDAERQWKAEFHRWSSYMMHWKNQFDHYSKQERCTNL
Answers are plain numbers, as −log10 of the molar value.

Record excerpt, results attached:
[
  {
    "sample smiles": "O=C(Nc1ccc(Cl)c(Cl)c1)c1cc(Cl)ccc1O",
    "measured on": "AChE from electric eel (EeAChE) (Electrophorus electricus, UniProt O42275)",
    "reported endpoint": "pIC50",
    "observed result": 4.22
  },
  {
    "sample smiles": "O=C(Nc1cc(Cl)cc(Cl)c1)c1cc(Br)ccc1O",
    "measured on": "AChE from electric eel (EeAChE) (Electrophorus electricus, UniProt O42275)",
    "reported endpoint": "pIC50",
    "observed result": 4.48
  },
  {
    "sample smiles": "O=C(Nc1cccc(Br)c1)c1ccc(Cl)cc1O",
    "measured on": "AChE from electric eel (EeAChE) (Electrophorus electricus, UniProt O42275)",
    "reported endpoint": "pIC50",
    "observed result": 4.22
  },
  {
    "sample smiles": "O=C(Nc1cc(C(F)(F)F)cc(C(F)(F)F)c1)c1ccc(Cl)cc1O",
    "measured on": "AChE from electric eel (EeAChE) (Electrophorus electricus, UniProt O42275)",
    "reported endpoint": "pIC50",
    "observed result": 4.26
  },
  {
    "sample smiles": "O=C(Nc1cc(Cl)cc(Cl)c1)c1cc(Cl)ccc1O",
    "measured on": "AChE from electric eel (EeAChE) (Electrophorus electricus, UniProt O42275)",
    "reported endpoint": "pIC50",
    "observed result": 4.34
  },
  {
    "sample smiles": "O=C(Nc1cc(Cl)c(Cl)c(Cl)c1)c1cc(Cl)ccc1O",
    "measured on": "AChE from electric eel (EeAChE) (Electrophorus electricus, UniProt O42275)",
    "reported endpoint": "pIC50",
    "observed result": 4.29
  },
  {
    "sample smiles": "O=C(Nc1cc(Cl)cc(Cl)c1)c1ccc(Cl)cc1O",
    "measured on": "AChE from electric eel (EeAChE) (Electrophorus electricus, UniProt O42275)",
    "reported endpoint": "pIC50",
    "observed result": 4.30
  },
  {
    "sample smiles": "O=C(Nc1cc(Cl)c(Cl)c(Cl)c1)c1ccc(Cl)cc1O",
    "measured on": "AChE from electric eel (EeAChE) (Electrophorus electricus, UniProt O42275)",
    "reported endpoint": "pIC50",
    "observed result": 4.24
  }
]

Lab note: next molecule to report on.
Answer with the recorded pIC50 of "O=C(Nc1ccc(Br)cc1)c1cc(Br)ccc1O" only.
4.15

====

target: BuChE from equine serum (EqBuChE) (Equus caballus, UniProt P81908); construct: butyrylcholinesterase was from an equine serum; purchased Sigma-Aldrich (Prague, Czech Republic); host or cells: equine serum (natural source); assay: Inhibition of BuChE, modified Ellman's spectrophotometric method; assay type: biochemical; details: IC50 (EqBuChE), mean ± SD, n = three experiments
Sequence (P81908 whole entry): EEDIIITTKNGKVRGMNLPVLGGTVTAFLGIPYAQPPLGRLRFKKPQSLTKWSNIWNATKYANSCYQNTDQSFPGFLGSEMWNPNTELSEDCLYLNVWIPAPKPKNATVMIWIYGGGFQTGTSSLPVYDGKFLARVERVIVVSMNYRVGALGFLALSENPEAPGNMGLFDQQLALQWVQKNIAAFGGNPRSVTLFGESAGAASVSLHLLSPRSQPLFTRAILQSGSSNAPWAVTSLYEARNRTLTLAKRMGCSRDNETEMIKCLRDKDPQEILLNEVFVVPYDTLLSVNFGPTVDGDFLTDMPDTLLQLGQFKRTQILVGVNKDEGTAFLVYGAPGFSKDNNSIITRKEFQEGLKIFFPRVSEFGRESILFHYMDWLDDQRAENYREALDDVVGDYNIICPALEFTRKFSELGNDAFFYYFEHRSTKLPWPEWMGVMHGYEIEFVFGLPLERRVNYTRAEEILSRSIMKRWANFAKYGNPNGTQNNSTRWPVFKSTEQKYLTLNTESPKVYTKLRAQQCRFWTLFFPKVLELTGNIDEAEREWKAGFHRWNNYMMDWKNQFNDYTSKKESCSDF
Exercise: for every item that follows, state its recorded IC50.
Numbers only, in µM.

Illustrative cases are given below, each with its answer.
[
  {
    "sample smiles": "O=C(Nc1cccc(C(F)(F)F)c1)c1cc(Cl)ccc1O",
    "observed result": 120
  },
  {
    "sample smiles": "O=C(Nc1ccc(F)cc1)c1cc(Cl)ccc1O",
    "observed result": 133
  }
]

// each compound listed below needs its IC50
1. O=C(Nc1ccc(Cl)cc1)c1cc(Br)ccc1O
2. O=C(Nc1cccc(Cl)c1)c1ccc(Cl)cc1O
3. O=C(Nc1ccc(Br)cc1)c1ccc(Cl)cc1O
4. O=C(Nc1cccc(Br)c1)c1cc(Cl)ccc1O
5. O=C(Nc1cc(C(F)(F)F)cc(C(F)(F)F)c1)c1cc(Br)ccc1O
6. O=C(Nc1cccc(C(F)(F)F)c1)c1ccc(Cl)cc1O

1. 131
2. 134
3. 174
4. 141
5. 53.5
6. 163

Batch: IC50 for all items listed.
1. O=C(Nc1ccc(F)cc1)c1ccc(Cl)cc1O
2. O=C(Nc1ccc(F)cc1)c1cc(Br)ccc1O
3. O=C(Nc1cccc(C(F)(F)F)c1)c1cc(Br)ccc1O
4. O=C(Nc1ccc(C(F)(F)F)cc1)c1ccc(Cl)cc1O
5. O=C(Nc1cccc(F)c1)c1ccc(Cl)cc1O
6. O=C(Nc1ccc(C(F)(F)F)cc1)c1cc(Br)ccc1O
7. O=C(Nc1cccc(F)c1)c1cc(Br)ccc1O

1. 152
2. 137
3. 117
4. 200
5. 146
6. 135
7. 119
